Experiment: Oral bioavailability in Sprague-Dawley rat at 20 mg/kg measured upto 1440 mins by LC-MS/MS analysis
Format: ADME, organism-based
Settings: in vivo
Readout label: bioavailability (%)
Supply the numeric figure in %, leaving out any unit text.

Record `N#Cc1ccc(N2C(=O)CN(CCCN3CCCc4ccccc43)C2=S)cc1C(F)(F)F` . Reported bioavailability: 5.74

---

Test: AUC (0 to infinity) in Sprague-Dawley rat at 20 mg/kg, ip measured upto 1440 mins by LC-MS/MS analysis
Type: ADME, organism-based
Settings: in vivo
Readout label: AUC(0-inf) (ng·h/mL)
Supply the numeric figure in ng·h/mL, leaving out any unit text.

Record `N#Cc1ccc(N2C(=O)CN(CCCN3CCCc4ccccc43)C2=S)cc1C(F)(F)F` . Reported AUC(0-inf): 9160
